Tested on: human PBMCs
methodNotes: CD3/CD28 stimulated IL-2 release NECA reversal assay in human PBMCs
Assay type: cell-based
testContext: PBMC, reversal of 1 uM NECA, 24 hours
pIC50: −log10 of the molar value.
Assign Y to entries whose pIC50 meets or exceeds 9; assign N to the rest.

Past entries and their recorded results:
compound	labelValue
Cc1ncnc2ccc(-c3sc(NC(=O)N4CC[C@H](C(C)(C)O)C4)nc3-c3cccc(C#N)c3)cc12 [Example 5]	Y
Cc1ncnc2ccc(-c3sc(NC(=O)N4CCC5(CC4)CN(C)C(=O)O5)nc3-c3cccc(C#N)c3)cc12 [Example 7.26]	Y
Cc1ncnc2ccc(-c3sc(NC(=O)N4CC[C@@H](C(C)(C)O)C4)nc3-c3cccc(C#N)c3)cc12 [Example 7]	Y

Lookup: Item Cc1ncnc2ccc(-c3sc(NC(=O)N4CCC(C)(C#N)C4)nc3-c3cccc(C#N)c3)cc12 (stereo not shown) [Example 7.25] with pIC50 of 9 or above?
Found: Y

Lookup: Item Cc1ncnc2ccc(-c3sc(NC(=O)N4CCC(C)(C#N)CC4)nc3-c3cccc(C#N)c3)cc12 [Example 6] with pIC50 of 9 or above?
Found: Y

Lookup: Item Cc1ncnc2ccc(-c3sc(NC(=O)N4CC5(CN(C)C5)C4)nc3-c3cccc(C#N)c3)cc12 [Example 7.4] with pIC50 of 9 or above?
Found: N

Lookup: Item N#Cc1cccc(-c2nc(NC(=O)N3CCOCC3)sc2-c2ccn3nccc3c2)c1 [Example 33] with pIC50 of 9 or above?
Found: N

* * *

targetEntity: human Adenosine A2a receptor (Homo sapiens (Human))
methodNotes: Adenosine receptor TR-FRET binding assay (A2a)
testContext: inhibition of binding of 100 nM CA200645; CHO cell membranes; Ki from IC50 by Cheng and Prusoff
pKi: −log10 of the molar value.
Assign 1 to entries whose pKi meets or exceeds 9; assign -1 to the rest.

molecule	labelValue
N#Cc1cccc(-c2nc(NC(=O)N3CC4(COC4)C3)sc2-c2ccc3nccn3c2)c1	1

Lookup: Item "Cc1cc(-c2sc(NC(=O)N3CC4(COC4)C3)nc2-c2cccc(C#N)c2)cc2cn(C)nc12" with pKi of 9 or above?
Found: -1

Lookup: Item "Cc1cc(-c2sc(NC(=O)N3CC4(COC4)C3)nc2-c2cccc(C#N)c2)c2[nH]ncc2n1" with pKi of 9 or above?
Found: -1

Lookup: Item "Cc1ncnc2ccc(-c3sc(NC(=O)N4CCN[C@H](C(C)(C)O)C4)nc3-c3cccc(C#N)c3)cc12" with pKi of 9 or above?
Found: 1

Lookup: Item "Cc1ncnc2ccc(-c3sc(NC(=O)N4CCC(N5CCOCC5)CC4)nc3-c3cccc(C#N)c3)cc12" with pKi of 9 or above?
Found: -1

Lookup: Item "Cc1cc(-c2sc(NC(=O)N3CC4(COC4)C3)nc2-c2cccc(C#N)c2)cnn1" with pKi of 9 or above?
Found: -1

Lookup: Item "Cc1cc(-c2sc(NC(=O)N3CCC(C)(C#N)CC3)nc2-c2cccc(C#N)c2)c2[nH]ncc2n1" with pKi of 9 or above?
Found: -1

Lookup: Item "Cc1nc(C)c2cc(-c3sc(NC(=O)N4CC5(COC5)C4)nc3-c3cccc(C#N)c3)ccc2n1" with pKi of 9 or above?
Found: -1

Lookup: Item "Cn1cnc2ccc(-c3sc(NC(=O)N4CC5(COC5)C4)nc3-c3cccc(C#N)c3)cc21" with pKi of 9 or above?
Found: 1

Lookup: Item "N#Cc1cccc(-c2nc(NC(=O)N3CCOCC3)sc2-c2ccn3nccc3c2)c1" with pKi of 9 or above?
Found: 1

Lookup: Item Cc1ncnc2ccc(-c3sc(NC(=O)N4CC5CN(C)CC54)nc3-c3cccc(C#N)c3)cc12 (stereo not drawn) with pKi of 9 or above?
Found: -1

Lookup: Item "Cc1ncnc2ccc(-c3sc(NC(=O)N4CCC(C)(C#N)CC4)nc3-c3cccc(C#N)c3)cc12" with pKi of 9 or above?
Found: 1

Lookup: Item Cc1ncnc2ccc(-c3sc(NC(=O)N4CCOC(CN(C)C)C4)nc3-c3cccc(C#N)c3)cc12 (stereo not drawn) with pKi of 9 or above?
Found: 1

Lookup: Item Cc1ncnc2ccc(-c3sc(NC(=O)N4CCO[C@H](C(C)(C)O)C4)nc3-c3cccc(C#N)c3)cc12 (single isomer, unassigned) [Example 7.7b] with pKi of 9 or above?
Found: 1

* * *

Tested on: human PBMCs
methodNotes: CD3/CD28 stimulated IL-2 release NECA reversal assay in human PBMCs
Format: cell-based
testContext: PBMC, reversal of 1 uM NECA, 24 hours
outcomeMeasure: IC50 (nM)
Answer with a number only, understood to be in nM.

Field: example entries. Status: answers known.
compound	outcomeMeasure	quantityUnit	numericResult
Cc1ncnc2ccc(-c3sc(NC(=O)N4CCNCC4CC4CC4)nc3-c3cccc(C#N)c3)cc12 (stereo not drawn)	IC50	nM	1.8
Cc1ncnc2ccc(-c3sc(NC(=O)N4CCC5(CC4)CNC(=O)C5)nc3-c3cccc(C#N)c3)cc12	IC50	nM	1.1
Cc1ncnc2ccc(-c3sc(NC(=O)N4CCC5(CCC(=O)N5)CC4)nc3-c3cccc(C#N)c3)cc12	IC50	nM	0.8
Cc1ncnc2ccc(-c3sc(NC(=O)N4CC5(C4)CC(C)(O)C5)nc3-c3cccc(C#N)c3)cc12	IC50	nM	0.7
Cc1ncnc2c(C)cc(-c3sc(NC(=O)N4CC5(COC5)C4)nc3-c3cccc(C#N)c3)cc12	IC50	nM	0.8

Lookup: What does the record list as IC50 for "Cc1ncnc2ccc(-c3sc(NC(=O)N4CCN(C5COC5)CC4)nc3-c3cccc(C#N)c3)cc12" ?
Found: 0.9

* * *

Listed compounds paired with reported Ki
targetEntity: human Adenosine A2a receptor (Homo sapiens (Human), UniProt P29274)
Sequence (P29274 whole entry): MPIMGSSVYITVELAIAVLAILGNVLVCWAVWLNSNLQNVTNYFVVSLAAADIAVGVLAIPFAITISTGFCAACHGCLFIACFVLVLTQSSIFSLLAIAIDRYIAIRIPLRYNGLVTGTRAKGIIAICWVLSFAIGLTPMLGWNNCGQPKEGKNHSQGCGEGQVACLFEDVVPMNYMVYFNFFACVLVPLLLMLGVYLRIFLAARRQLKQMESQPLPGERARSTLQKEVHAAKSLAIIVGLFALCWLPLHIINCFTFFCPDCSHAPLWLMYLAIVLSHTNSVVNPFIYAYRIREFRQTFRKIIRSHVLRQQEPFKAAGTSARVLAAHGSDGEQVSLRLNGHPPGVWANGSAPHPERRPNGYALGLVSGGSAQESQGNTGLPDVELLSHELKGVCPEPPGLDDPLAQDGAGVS
methodNotes: Adenosine receptor TR-FRET binding assay (A2a)
testContext: inhibition of binding of 100 nM CA200645; CHO cell membranes; Ki from IC50 by Cheng and Prusoff
Answer with a number only, understood to be in nM.

Cc1cc(-c2sc(NC(=O)N3CC4(COC4)C3)nc2-c2cccc(C#N)c2)cc2cnn(C)c12 0.59

Lookup: What does the record list as Ki for "N#Cc1cccc(-c2nc(NC(=O)N3CC4(COC4)C3)sc2-c2ccnc3[nH]ccc23)c1" ?
Found: 1

Lookup: What does the record list as Ki for "Cc1ncnc2ccc(-c3sc(NC(=O)N4CCN(C5COC5)CC4)nc3-c3cccc(C#N)c3)cc12" ?
Found: 0.64

Lookup: What does the record list as Ki for "N#Cc1cccc(-c2nc(NC(=O)N3CC4(COC4)C3)sc2-c2ccc3ncoc3c2)c1" ?
Found: 1.4
